Data provenance: PubChem BioAssay (NCI)

# Tested on: KM12 colon
# PROTOCOL NOTES: NCI tumour cell line growth inhibition, 48 h
ATTRIBUTE MEASURED: TGI (µM)

[[record]]
compound = "Cc1nc2cnc(N)c(C#Cc3cncc(C(=O)Nc4ccc(CN5CCN(C)CC5)c(C(F)(F)F)c4)c3)c2nc1C"
assay_system = "KM12 colon"
censor_symbol = "="
experimental_result = 1.44

[[record]]
compound = "N#Cc1c(-c2ccc(F)cc2)c(-c2ccc(F)cc2)nn(CCO)c1=O"
assay_system = "KM12 colon"
censor_symbol = "="
experimental_result = 4.49

[[record]]
compound = "CCOC(=O)c1csc(NC(=O)CN2CCN(C)CC2)n1"
assay_system = "KM12 colon"
censor_symbol = ">"
experimental_result = 100

[[record]]
compound = "CN(C)/C=N/n1c2ccccc2c2ccccc21"
assay_system = "KM12 colon"
censor_symbol = ">"
experimental_result = 100

[[record]]
compound = "CC(CC(=O)O)C(C(=O)O)C(=O)O (stereo not given)"
assay_system = "KM12 colon"
censor_symbol = ">"
experimental_result = 100

[[record]]
compound = "C=CCCCCCCCCCCC1(O)C=CC2=[N+](CCCCCN=C(N)N)CCCN21 (stereo not given)"
assay_system = "KM12 colon"
censor_symbol = "="
experimental_result = 18.7

[[record]]
compound = "O=c1cc(-c2ccccc2)[nH]c2c(S)cccc12"
assay_system = "KM12 colon"
censor_symbol = ">"
experimental_result = 100

[[record]]
compound = "COc1ccc(OC)c(C2Cc3cnc4nc(N)nc(N)c4c3C2)c1 (stereo not given)"
assay_system = "KM12 colon"
censor_symbol = "="
experimental_result = 55.7

[[record]]
compound = "Cc1ccc(C(=O)N/N=C(\\N=Nc2ccccc2[N+](=O)[O-])c2ccc(N(C)C)cc2)cc1"
assay_system = "KM12 colon"
censor_symbol = ">"
experimental_result = 100

[[record]]
compound = "O=c1cc2oc3cc(O)c(O)cc3c(-c3ccccc3O)c-2cc1O"
assay_system = "KM12 colon"
censor_symbol = ">"
experimental_result = 100

